Reported melting point values for a set of molecules

Worked cases, answers included:
INSERT INTO results (molecule, result) VALUES
  ('Cc1[nH][nH]c(=O)c1Cc1ccc2ccccc2c1', '240 to 244 °C'),
  ('CCC(=O)c1c(-c2ccncc2)[nH]c(-c2ccncc2)c1CC', '209 to 211 °C'),
  ('Cn1nc(-c2c(Cl)cc(C(F)(F)F)cc2Cl)c([N+](=O)[O-])c1N', '107 to 108 °C'),
  ('CC1(C)OC[C@H](c2cnc(NC(=O)C(C)(C)C)cn2)O1', '142 to 143 °C'),
  ('CC(C)(C)OC(=O)NCCc1cccc(C#N)n1', '79.1 to 80.3 °C'),
  ('CCOC(=O)c1cc2cc(NC(C)=O)ccc2n1C(=O)OC(C)(C)C', '122 to 123 °C'),
  ('COc1cc(C)c(C(=O)c2c(C(F)(F)F)ccnc2OC)cc1OC', '125 to 127 °C'),
  ('Cc1ccc(Cl)c(C(=O)c2ccc(Cl)cc2)c1', '85 to 90 °C'),
  ('CCOc1cc2c(cc1O)C(=O)CC1C2CCC2(C)C(O)CCC12 (stereo unspecified)', '194 to 196 °C'),
  ('ON=CCc1ccc(F)cc1', '113 to 115 °C');

Let us examine a further case.
Entry Cc1c(O)c(=O)ccn1CC(=O)O has what melting point?
> 230 °C

* * *

experimental.endpoint: melting point

INSERT INTO assay_data (compound, result) VALUES
  ('CC1(C)CCC(C)(C)c2cc(COc3ccc(C(=O)O)cc3-c3ccccc3)ccc21', '195 to 198 °C'),
  ('CCCCc1ncc(/C=C(\Cc2cccs2)C(N)=O)n1Cc1ccc(C(N)=O)cc1', '204 to 206 °C'),
  ('COc1ccc2oc(N(C=O)[C@@H](Cc3ccccn3)c3ncc(-c4ccc([N+](=O)[O-])cc4)n3C)cc2c1', '210 to 211 °C'),
  ('CC(C)CC(NC(=O)C(Cc1c[nH]cn1)NC(=O)C(Cc1cccc2ccccc12)Cc1cccc2ccccc12)C(O)C(=O)OC(C)C (stereo not drawn)', '93 to 98 °C'),
  ('CC(C)Nc1nc2cc(F)c(Cl)cc2n1[C@@H]1O[C@H](C)[C@@H](O)[C@H]1O', '97 to 99 °C'),
  ('c1cc(N=C2SCC3Cc4sccc4CN23)c2ccncc2c1 (racemic)', '198 °C'),
  ('Cc1cc(N2C(=O)N(CCCCCCCCCSCCCC(F)(F)C(F)(F)F)C(C)(C)C2=O)ccc1NS(N)(=O)=O', '102 to 104 °C');

Entry C=CCc1c(OC(C)=O)c2cccnc2n(-c2ccccc2)c1=O has what melting point?
189 to 195 °C

* * *

Reported melting point values for a set of compounds

INSERT INTO measurements (chemical_smiles, result) VALUES
  ('CCN1CCN([C@](O)(CNC(=O)c2ccc(OCc3cc(C)nc4ccccc34)cc2)C(N)=O)CC1', '184 °C'),
  ('CCOP(=O)(CCN(OCc1ccccc1)S(=O)(=O)c1ccc(C)cc1)OCC', '78 to 80 °C'),
  ('CC(C)(C)c1cc(NC(=O)Nc2ccc(OCCN3CCOCC3)c3ccccc23)n(-c2ccccc2)n1', '142 to 143 °C');

Entry CC(C)(C)[Si](C)(C)O[C@H](/C=C/[C@@H]1[C@H]2CC(=O)O[C@H]2C[C@H]1O[Si](C)(C)C(C)(C)C)COc1cccc(C(F)(F)F)c1 has what melting point?
91 to 93 °C

* * *

Reported melting point values for a set of compounds

Worked cases, answers included:
INSERT INTO measurements (chemical_smiles, result) VALUES
  ('COC(=O)c1ccc2nc(C(C)C)c(C(C)C)nc2c1', '53 to 55 °C'),
  ('COc1ccc(S(=O)(=O)N(Cc2ccccc2)C2(C(=O)NO)CCN(Cc3ccccc3)CC2)cc1', '136 to 142 °C'),
  ('CC1(CNC(=O)OC(C)(C)C)CN(C(c2ccccc2)c2ccccc2)C1', '106 to 107 °C'),
  ('CCOCCOc1ccc(CN/C=C2\C(=O)NC(=O)c3ccc(Br)cc32)cc1O', '179 to 180 °C'),
  ('CC(=O)Nc1nc2c(Oc3cc(-c4ccc(C(F)(F)F)cc4Cl)ncn3)cccc2s1', '263 to 264 °C'),
  ('O=C(O)c1cccc(OCc2ccc(Cl)c(Cl)c2)c1', '173 to 174 °C');

Entry Oc1ccc(CNc2ncncc2Cl)cc1 has what melting point?
190 to 191 °C

Continue with CCCCn1cc(C(=O)O)c(=O)c2oc3ccc(Cl)cc3c(=O)c21
271 to 273 °C

Continue with COC(=O)c1ccc(-c2ccncc2)cc1
99 to 101 °C

Continue with CCCc1ccc(-c2cc(F)c(-c3ccc(CC)s3)c(F)c2)cc1
45 °C

* * *

Reported melting point values for a set of compounds

Worked cases, answers included:
INSERT INTO assay_data (compound, result) VALUES
  ('COc1cc(C(=O)NN2CCN(C)CC2)ccc1Nc1ncc2c(n1)N(C1CCCC1)CC(F)(F)C(=O)N2C', '168 to 174 °C'),
  ('CCNc1cc(-c2c(-c3cccc(C)c3)nc3cccnn23)ccn1', '151 to 153 °C'),
  ('CC(C)(C)OC(=O)N[C@H](CO)Cc1ccc(-c2ccccc2)cc1', '116 °C'),
  ('FC(F)(F)COc1ccc(-c2cc(C(F)(F)F)n3ncc(-c4cccnc4)c3n2)cc1C(F)(F)F', '181 °C');

Entry CCc1nnc(-c2ccc(N(C)C)c(C)c2)n1-c1ccc(OC)cc1 has what melting point?
131 °C

Continue with Nc1cnccc1Oc1ccc(Cl)cc1
104 to 106 °C

Continue with CC(C)(C)OC(=O)NCCOc1noc2c(C#N)cccc12
91 to 92 °C

Continue with CC(=O)OCC1OC(OC(C)=O)C(N=[N+]=[N-])C(OC(C)=O)C1OC(C)=O (stereo not given)
131 to 132 °C

Continue with Cc1cc(C)c(Nc2nc(C)ncc2S(=O)(=O)c2ccc(O)cc2)c(C)c1
246 to 248 °C

Continue with Clc1cc(CCc2ccccn2)c2oc(-c3cccs3)nc2c1
90 to 91 °C

Continue with CC(C)(C)OC(=O)Nc1ccc2ccc(C#N)cc2c1
126 to 128 °C

Continue with CN1CCN(C(=NNc2ccccc2Cl)c2ccccc2F)CC1
109 to 111 °C

Continue with CCCCc1nn2cccc(C(=O)OC)c2c1Cc1ccc(-c2ccccc2C#N)cc1
92 to 95 °C

Continue with CCCCCCCc1ccc(C(=O)CCCCC(=O)O)cc1N
100 to 102 °C

Continue with CC=C1CCC2C3C(OC(C)=O)CC4CC(OC(C)=O)CCC4(C)C3CCC12C (stereo not given)
92 to 93 °C

* * *

experimental.endpoint: melting point

Entry CCOc1ccc(-c2nc(OC)ccc2N2CCC(c3ccc(OC)cc3)N(C)CC2)cc1 (stereo not given) has what melting point?
103 to 107 °C

Continue with CCCc1nc(O)c(-c2ccc(C)cc2)c(O)n1
> 300 °C

Continue with CS(=O)(=O)Nc1ccc(CCNC(=O)c2cc3cc(O)ccc3cc2O)cc1
176 to 178 °C

Continue with CC1=C(C)C(=O)C(CCCCC#CCCCC#CC(=O)O)=C(C)C1=O
49 to 51 °C

Continue with CC(C)N(C(=O)c1cccc2c1CCc1cc(C(F)(F)F)ccc1S2)C(C)C
122 °C

Continue with COc1ccc(C(C#N)N2C(=O)c3cccc(NC(C)=O)c3C2=O)cc1OC1CCCC1 (stereo not given)
124 to 126 °C

* * *

Reported melting point values for a set of compounds

Worked cases, answers included:
INSERT INTO results (compound, result) VALUES
  ('NC(=O)c1ccc(NC(=O)C(CS)Cc2ccccc2)cc1 (stereo not given)', '195 to 197 °C'),
  ('CC(=O)Nc1cc([N+](=O)[O-])ccc1OCCCN(C)C', '69 °C'),
  ('CON=C(C#CC(=O)c1ccc(Cl)cc1)C(=O)OC', '172 to 173 °C'),
  ('CCOc1cc(C(C#N)N2C(=O)c3cccc(NC(C)=O)c3C2=O)ccc1OC (stereo not given)', '118 to 120 °C');

Entry CCCOCCOC(=O)C1=C(C)NC(C)=C(S(=O)(=O)NC(C)C)C1c1cccc([N+](=O)[O-])c1 (stereo not given) has what melting point?
155 to 158 °C

Continue with CC(C)n1nc(-c2ccc(=O)[nH]c2-c2ccccc2)ccc1=O
107 to 109 °C

Continue with Cc1ncccc1CC(=NC#N)NC1CCCc2ccccc21 (stereo not given)
193 to 194 °C

Continue with COC(=O)CC(C(OC)OC)C(C)(C)S(=O)(=O)c1ccc(C)cc1 (stereo not given)
110 °C

Continue with Cc1ccccc1C(=O)c1ccccc1C
66 to 67 °C

Continue with CCn1ncc2c(NCc3ccc(OC)cc3)c3cc(OC)ccc3nc21
263 to 265 °C

Origin of the recorded values: a melting point compilation (Tetko et al.; mined from patent text by program, amines drawn as free bases though some values may be those of a salt)
